- TARGET_OR_SYSTEM: MDM2 (Homo sapiens, UniProt Q00987)
- Sequence (Q00987 1-125): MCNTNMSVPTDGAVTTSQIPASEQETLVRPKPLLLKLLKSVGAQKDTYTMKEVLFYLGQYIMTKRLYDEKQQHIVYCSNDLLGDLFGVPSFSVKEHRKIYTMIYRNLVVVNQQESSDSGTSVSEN
- ASSAY_DETAILS: Competitive fluorescence polarization assay for MDM2
- Format: binding
- STUDY_CONDITIONS: competitive FP assay, MDM2; read-out: IC50 (MDM2)
pIC50: −log10 of the molar value. Where a SMILES comes first, the peptide text is derived from it. Bridges are numbered along the chain shown (N, C = ends). [ ]: non-standard residue; d: D form. R8 = C=CCCCCCC[C@@](C)(N)C(=O)O; S5 = C=CCCC[C@](C)(N)C(=O)O

- COMPOUND: "CC(=O)N[C@@H](CC(C)C)C(=O)N[C@H](C(=O)N[C@@H](Cc1ccc(F)c(F)c1)C(=O)N[C@]1(C)CCCCCCC=CCCC[C@@](C)(C(=O)N[C@@H](CO)C(=O)N[C@@H](C)C(=O)N[C@@H](C)C(N)=O)NC(=O)[C@H](CC(C)C)NC(=O)[C@H](CCC(N)=O)NC(=O)[C@H](C)NC(=O)[C@H](Cc2c[nH]c3ccccc23)NC(=O)[C@H](Cc2ccc(O)cc2)NC(=O)[C@H](CCC(=O)O)NC1=O)[C@@H](C)O (single isomer, unassigned)"
  pIC50: "> 8.00"
- COMPOUND: "CC(=O)N[C@@H](CC(C)C)C(=O)N[C@H](C(=O)N[C@@H](Cc1ccccc1)C(=O)N[C@]1(C)CCCCCCC=CCCC[C@@](C)(C(=O)N[C@@H](CO)C(=O)N[C@@H](C)C(=O)N[C@@H](C)C(N)=O)NC(=O)[C@H](CC(C)C)NC(=O)[C@H](C)NC(=O)[C@H](C(C)C)NC(=O)[C@H](Cc2c[nH]c3ccccc23)NC(=O)[C@H](Cc2ccc(O)cc2)NC(=O)[C@H](C)NC1=O)[C@@H](C)O [compound 196] (Ac-LTF[R8]AYWVAL[S5]SAA-NH2; staple 4-11)"
  pIC50: "7.00 to 8.00"

----------
- TARGET_OR_SYSTEM: MDM2 (Homo sapiens, UniProt Q00987)
- ASSAY_DETAILS: Competitive fluorescence polarization assay for MDM2
- Format: binding
- STUDY_CONDITIONS: competitive FP assay, MDM2; read-out: Ki (MDM2)
Where a SMILES comes first, the peptide text is derived from it. Bridges are numbered along the chain shown (N, C = ends). [ ]: non-standard residue; d: D form. R8 = C=CCCCCCC[C@@](C)(N)C(=O)O; S5 = C=CCCC[C@](C)(N)C(=O)O

- COMPOUND: "CC(=O)N[C@@H](CC(C)C)C(=O)N[C@H](C(=O)N[C@@H](Cc1ccccc1)C(=O)N[C@]1(C)CCCCCCC=CCCC[C@@](C)(C(=O)N[C@@H](CO)C(=O)N[C@@H](C)C(=O)N[C@@H](Cc2ccccc2)C(N)=O)NC(=O)[C@H](CC(C)C)NC(=O)[C@H](CCC(N)=O)NC(=O)[C@H](C)NC(=O)[C@H](Cc2c[nH]c3ccccc23)NC(=O)[C@H](Cc2ccc(O)cc2)NC(=O)[C@H](C)NC1=O)[C@@H](C)O [compound 7] (Ac-LTF[R8]AYWAQL[S5]SAF-NH2; staple 4-11)"
  Ki: "< 10 nM"
- COMPOUND: "CC(=O)N[C@@H](CC(C)C)C(=O)N[C@H](C(=O)N[C@@H](Cc1ccccc1)C(=O)N[C@]1(C)CCCCCCC=CCCC[C@@](C)(C(=O)N[C@@H](CO)C(=O)N[C@H](C(=O)NCC(N)=O)C(C)C)NC(=O)[C@H](CC(C)C)NC(=O)[C@H](CCC(N)=O)NC(=O)[C@H](C)NC(=O)[C@H](Cc2c[nH]c3ccccc23)NC(=O)[C@H](Cc2ccc(O)cc2)NC(=O)[C@H](C)NC1=O)[C@@H](C)O [compound 123] (Ac-LTF[R8]AYWAQL[S5]SVG-NH2; staple 4-11)"
  Ki: "< 10 nM"

----------
- TARGET_OR_SYSTEM: MDMX (Homo sapiens)
- Sequence (O15151 1-125): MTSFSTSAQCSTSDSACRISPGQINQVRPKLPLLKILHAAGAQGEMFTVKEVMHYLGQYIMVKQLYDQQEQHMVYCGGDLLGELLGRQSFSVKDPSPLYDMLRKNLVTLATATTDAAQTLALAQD
- ASSAY_DETAILS: Competitive fluorescence polarization assay for MDMX
- Format: binding
- STUDY_CONDITIONS: competitive FP assay, read-out: IC50 (MDMX)
Where a SMILES comes first, the peptide text is derived from it. Bridges are numbered along the chain shown (N, C = ends). [ ]: non-standard residue; d: D form. R8 = C=CCCCCCC[C@@](C)(N)C(=O)O; Cba = N[C@@H](CC1CCC1)C(=O)O; S5 = C=CCCC[C@](C)(N)C(=O)O

- COMPOUND: "CC[C@H](C)[C@H](NC(C)=O)C(=O)N[C@H](C(=O)N[C@@H](Cc1ccccc1)C(=O)N[C@]1(C)CCCCCCC=CCCC[C@@](C)(C(=O)N[C@@H](C)C(=O)N[C@@H](CCC(=O)O)C(=O)N[C@@H](Cc2ccccc2)C(=O)N[C@@H](C)C(N)=O)NC(=O)[C@H](CC(C)C)NC(=O)[C@H](CCC(N)=O)NC(=O)[C@H](C)NC(=O)[C@H](Cc2c[nH]c3ccccc23)NC(=O)[C@H](Cc2c[nH]cn2)NC(=O)[C@H](Cc2ccccc2)NC1=O)[C@@H](C)O [compound 186] (Ac-ITF[R8]FHWAQL[S5]AEFA-NH2; staple 4-11)"
  IC50: "0.1 to 1 µM"
- COMPOUND: "CC(=O)N[C@@H](CC(C)C)C(=O)N[C@H](C(=O)N[C@@H](Cc1ccccc1)C(=O)N[C@]1(C)CCCCCCC=CCCC[C@@](C)(C(=O)N[C@@H](CO)C(=O)N[C@@H](C)C(=O)N[C@@H](C)C(N)=O)NC(=O)[C@H](CC2CCC2)NC(=O)[C@H](CCC(N)=O)NC(=O)[C@H](C)NC(=O)[C@H](Cc2c[nH]c3ccccc23)NC(=O)[C@H](Cc2ccc(O)cc2)NC(=O)[C@H](C)NC1=O)[C@@H](C)O [compound 255] (Ac-LTF[R8]AYWAQ[Cba][S5]SAA-NH2; staple 4-11)"
  IC50: "0.01 to 0.1 µM"

----------
- TARGET_OR_SYSTEM: MDM2 (Homo sapiens)
- ASSAY_DETAILS: Competitive fluorescence polarization assay for MDM2
- Assay type: binding
- STUDY_CONDITIONS: competitive FP assay, MDM2; read-out: Ki (MDM2)
Where a SMILES comes first, the peptide text is derived from it. Bridges are numbered along the chain shown (N, C = ends). [ ]: non-standard residue; d: D form. R8 = C=CCCCCCC[C@@](C)(N)C(=O)O; S5 = C=CCCC[C@](C)(N)C(=O)O; Sar = CNCC(=O)O

- COMPOUND: "CCCC[C@H](NC(=O)[C@H](C)NC(=O)[C@H](C)NC(=O)[C@]1(C)CCCC=CCCCCCC[C@@](C)(NC(=O)[C@H](Cc2ccccc2)NC(=O)[C@@H](NC(=O)[C@H](CC(C)C)NC(C)=O)[C@@H](C)O)C(=O)N[C@@H](C)C(=O)N[C@@H](Cc2ccc(O)cc2)C(=O)N[C@@H](Cc2c[nH]c3ccccc23)C(=O)N[C@@H](C)C(=O)N[C@@H](CCC(N)=O)C(=O)N[C@@H](CCC(C)C)C(=O)N1)C(=O)N[C@@H](C)C(=O)N[C@@H](C)C(N)=O [compound 323]"
  TARGET_OR_SYSTEM: "MDM2 (Homo sapiens)"
  Ki: "10 to 100 nM"
- COMPOUND: "CC(=O)N[C@@H](CC(C)C)C(=O)N[C@H](C(=O)N[C@@H](Cc1ccccc1)C(=O)N[C@]1(C)CCCCCCC=CCCC[C@@](C)(C(=O)N[C@@H](C)C(=O)N[C@@H](C)C(=O)N[C@@H](C)C(=O)N(C)CC(=O)N[C@@H](C)C(=O)N[C@H](C)C(N)=O)NC(=O)[C@H](CC(C)C)NC(=O)[C@H](CCC(N)=O)NC(=O)[C@H](C)NC(=O)[C@H](Cc2c[nH]c3ccccc23)NC(=O)[C@H](Cc2ccc(O)cc2)NC(=O)[C@H](CCC(=O)O)NC1=O)[C@@H](C)O [compound 576] (Ac-LTF[R8]EYWAQL[S5]AAA[Sar]A[dA]-NH2; staple 4-11)"
  TARGET_OR_SYSTEM: "MDM2 (Homo sapiens)"
  Ki: "< 10 nM"
- COMPOUND: "CC(=O)N[C@@H](CC(C)C)C(=O)N[C@H](C(=O)N[C@@H](Cc1ccccc1)C(=O)N[C@]1(C)CCCCCCC=CCCC[C@@](C)(C(=O)N[C@@H](Cc2c[nH]cn2)C(=O)N[C@@H](Cc2c[nH]cn2)C(=O)N[C@@H](CC(C)C)C(=O)N[C@H](C)C(N)=O)NC(=O)[C@H](CC(C)C)NC(=O)[C@H](CCC(N)=O)NC(=O)[C@H](C)NC(=O)[C@H](Cc2c[nH]c3ccccc23)NC(=O)[C@H](Cc2ccc(O)cc2)NC(=O)[C@H](C)NC1=O)[C@@H](C)O [compound 43] (Ac-LTF[R8]AYWAQL[S5]HHL[dA]-NH2; staple 4-11)"
  TARGET_OR_SYSTEM: "MDM2 (Homo sapiens)"
  Ki: "< 10 nM"
- COMPOUND: "CC(=O)N[C@@H](CC(C)C)C(=O)N[C@H](C(=O)N[C@@H](Cc1ccccc1)C(=O)N[C@]1(C)CCCCCCC=CCCC[C@@](C)(C(=O)N[C@@H](CO)C(=O)N[C@@H](CC(N)=O)C(=O)N[C@H](C)C(N)=O)NC(=O)[C@H](CC(C)C)NC(=O)[C@H](CCC(N)=O)NC(=O)[C@H](C)NC(=O)[C@H](Cc2c[nH]c3ccccc23)NC(=O)[C@H](Cc2ccc(O)cc2)NC(=O)[C@H](C(C)C)NC1=O)[C@@H](C)O [compound 135] (Ac-LTF[R8]VYWAQL[S5]SN[dA]-NH2; staple 4-11)"
  TARGET_OR_SYSTEM: "MDM2 (Homo sapiens)"
  Ki: "< 10 nM"
